Each entry below lists one item and its recorded activation value.
molecular target: D(2) dopamine receptor (Homo sapiens); assay: HTS Assay for Allosteric Agonists of the Human D2 Dopamine Receptor: Primary Screen for Agonists; conditions: HEK293 T-REx D2 cells, calcium flux agonist mode; at 2 µM; active compounds read high; also: 0% is about no effect
The campaign covered roughly 340,000 compounds. About 1,800 (0.53%) were called active. The sample as a whole holds a higher share of actives than the screen did.

Use the examples below as a reference point.
- Fc1ccc(N2CCN(Cc3ccc4c(c3)OCO4)CC2)cc1: 6.76% (inactive)
- CCOC(=O)C1(Cc2ccc(Cl)cc2)CCN(C(C)CCn2cccn2)CC1 (stereo unspecified): 72.7% (active)
- Oc1cc2c(cc1CN1CCN(c3ccccc3)CC1)OCO2: 83.3% (active)
- COc1ccccc1CN1CCN(C(=O)Cc2ccccc2)CC1: 0.485% (inactive)
- COC(=O)C1=C(c2cccc(OCc3ccccc3)c2)C[C@@H]2CC[C@H]1N2C(=O)NNCc1ccccc1: -0.13% (inactive)

Q) Any idea what its activation is? The molecule is CCOC(=O)C1(CCc2ccccc2)CCN(Cc2ccco2)CC1
A) 0.433% (inactive)
